Where these numbers come from: PubChem BioAssay (EPA / NIEHS)

- Read-out: Urokinase-type plasminogen activator receptor (uPAR), PLAUR (gene 5329)
- assayInfo: BSK_BE3C_uPAR: BioMAP Diversity Plus: BE3C Assay for Urokinase-type plasminogen activator receptor (uPAR) Biomarker Activity (AID 2283039)
- conditionLabel: primary human bronchial epithelial cells; actives raise or lower the signal
The source made the active and inactive calls. How the source made its calls: active means hit-call score of the fitted dose curve at least 0.9, where 1 is the maximum; inactive means score below 0.9.
Classes used: active, inactive

inputSmiles: CC(C)(C)c1csc(-c2cc3cc(OCc4ccccc4CC(=O)O)ccc3o2)n1
classAssignment: active

inputSmiles: CC(C)(c1cc(Br)c(O)c(Br)c1)c1cc(Br)c(O)c(Br)c1
classAssignment: active

inputSmiles: NC(=O)c1nc(-c2cccc(-c3cc(F)ccc3OCC(F)(F)C(F)(F)F)c2)n[nH]1
classAssignment: active

inputSmiles: O=CCCCC=O
classAssignment: inactive

inputSmiles: Cc1cc2c(cc1C(F)(F)F)N(C(=O)Nc1ccc(Oc3cccnc3C)nc1)CC2
classAssignment: inactive

inputSmiles: Cc1ncc(CO)c(CO)c1O
classAssignment: inactive

inputSmiles: CCCCCCCCOC(=O)c1cc(O)c(O)c(O)c1
classAssignment: active

inputSmiles: O=C(O)c1ccccc1C(=O)OCc1ccccc1
classAssignment: inactive

inputSmiles: CCN(Cc1cccnc1)C(=O)c1cccc(Cl)c1[C@]1(C)C(=O)N(Cc2ccc(OC)cc2OC)c2ccc(Cl)cc21
classAssignment: active

inputSmiles: CCCCCCCCN(C)CCCCCCCC
classAssignment: inactive

inputSmiles: CCCCCCCCCCCC[N+](C)(C)C
classAssignment: active

inputSmiles: Cc1oc2c(NC(=O)c3c(Cl)cccc3Cl)cccc2c1C(C)(C)O
classAssignment: inactive

---

- testedOn: rat Glutamate, NMDA Agonist Site (GluNMDA), Grin1 (gene 24408)
- assayInfo: NVS_LGIC_rGluNMDA_Agonist: NovaScreen (NVS) Ligand-Gated Ion Channel Assay for rat Glutamate, NMDA Agonist Site (GluNMDA) (AID 2283327)
Records with an inconclusive call do not appear. Active and inactive are the calls of the source. How the source made its calls: active means hit-call score of the fitted dose curve at least 0.9, where 1 is the maximum; inconclusive means response in the unintended direction; inactive means score below 0.9.
observedProperty: AC50

inputSmiles: CN(C)C(=O)C1(N2CCCCC2)CCN(CC[C@@]2(c3ccc(Cl)c(Cl)c3)CN(C(=O)c3ccccc3)CCO2)CC1
observedProperty: AC50
endpointResult: 29.3 µM (active)

inputSmiles: O=C(O)Cn1c(=O)n(Cc2ccc(Br)cc2F)c(=O)c2ccc(Cl)cc21
observedProperty: AC50
endpointResult: inactive

inputSmiles: COc1cc(C(=O)NC2CCN(C)CC2)ccc1Nc1ncc2c(n1)N(C1CCCC1)CC(F)(F)C(=O)N2C
observedProperty: AC50
endpointResult: 11.5 µM (active)

inputSmiles: O=C1O[C@H]([C@@H](O)CO)C(O)=C1O
observedProperty: AC50
endpointResult: inactive

inputSmiles: CN(C[C@@H](CC[N+]12CCC(C3CCCCC3)(CC1)CC2)c1ccc(Cl)c(Cl)c1)C(=O)c1cc(C(F)(F)F)cc(C(F)(F)F)c1
observedProperty: AC50
endpointResult: 38.2 µM (active)

---

- assayInfo: ATG_CRE_CIS: Attagene CIS-FACTORIAL HepG2 Assay for human cAMP Responsive Element (CRE) binding protein 3 (AID 2282926)
- conditionLabel: HepG2 CRE cis-reporter, Attagene multiplexed mRNA; actives raise or lower the signal
Calls of active or inactive are those of the source. Rule for the calls: active = hit-call score of the fitted dose curve at least 0.9, where 1 is the maximum; inactive = score below 0.9.
Classes used: active, inactive

molecule: CC[C@H](NC(=O)c1cc(F)ccc1NS(=O)(=O)c1cccc2cccnc12)c1ccccc1
classAssignment: inactive
//
molecule: CC(O)CC(C)(C)O (configuration not stated)
classAssignment: inactive
//
molecule: CCCOC(=O)c1cc(O)c(O)c(O)c1
classAssignment: inactive
//
molecule: COc1cc(C(=O)NC2CCN(C)CC2)ccc1Nc1ncc2c(n1)N(C1CCCC1)CC(F)(F)C(=O)N2C
classAssignment: active
//
molecule: O=C(OCCCCCCOC(=O)c1ccccc1)c1ccccc1
classAssignment: inactive
//
molecule: NCc1cccc(C2CCN(C(=O)c3ccc(C#Cc4ccccc4F)o3)CC2)c1
classAssignment: active
//
molecule: CCCCOC(=O)CC(CC(=O)OCCCC)(OC(C)=O)C(=O)OCCCC
classAssignment: inactive
//
molecule: CN1C(=O)N(c2ccccc2Br)Cc2cnc(Nc3ccc4c(c3)OCC(CO)O4)nc21 (configuration not stated)
classAssignment: active
//
molecule: CCCC(=O)OCCC(C)C
classAssignment: inactive
//
molecule: CC(C)(C)c1csc(-c2cc3cc(OCc4ccccc4CC(=O)O)ccc3o2)n1
classAssignment: active
//
molecule: Cc1ncc(CO)c(CO)c1O
classAssignment: inactive
//
molecule: O=c1ccc2ccccc2o1
classAssignment: inactive

---

- assayInfo: BSK_SAg_SRB: Viability Assessment in the BioMAP Diversity Plus: SAg Assay (AID 2283096);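 further: cells read one day after compound addition; hits may be either gain or loss of signal compared with DMSO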
- conditionLabel: primary human HUVEC with PBMC
The source made the active and inactive calls. Rule for the calls: active = hit-call score of the fitted dose curve at least 0.9, where 1 is the maximum; inactive = score below 0.9.
observedProperty: AC50

inputSmiles: CC/C(=C(/CC)c1ccc(O)cc1)c1ccc(O)cc1
endpointResult: 23.1 µM (active)
//
inputSmiles: Cc1c2ccccc2c(C)c2c1ccc1ccccc12
endpointResult: 29.1 µM (active)
//
inputSmiles: Cc1cccc2ccccc12
endpointResult: inactive
//
inputSmiles: CCCCCCCCN(C)CCCCCCCC
endpointResult: inactive
//
inputSmiles: CN(C[C@@H](CC[N+]12CCC(C3CCCCC3)(CC1)CC2)c1ccc(Cl)c(Cl)c1)C(=O)c1cc(C(F)(F)F)cc(C(F)(F)F)c1
endpointResult: 26.9 µM (active)
//
inputSmiles: CC1=CC(=O)/C(=C(/C)O)C(=O)O1
endpointResult: inactive
//
inputSmiles: Cc1occc1C(=O)Nc1ccc(C(=O)N2CCC(F)(F)/C(=C\C(=O)N3CCC(N4CCCCC4)CC3)c3ccccc32)cc1
endpointResult: inactive
//
inputSmiles: CCCCCCCC[Si](OCC)(OCC)OCC
endpointResult: 31.7 µM (active)
//
inputSmiles: CCCCOC(=O)c1ccc(O)cc1
endpointResult: inactive
//
inputSmiles: O=C(O)c1ccccc1C(=O)OCc1ccccc1
endpointResult: inactive
//
inputSmiles: CC(C)(O)c1ccc(CNC(=O)c2cccnc2Oc2ccc3nonc3c2)cc1
endpointResult: inactive
//
inputSmiles: CC(C)(C)c1cc(/C=C2\SC(N)=NC2=O)cc(C(C)(C)C)c1O
endpointResult: 26.6 µM (active)

---

- assayInfo: ACEA_ER_AUC_viability: ACEA Biosciences xCELLigence Real-Time Cell Analysis on Estrogen Receptor Agonism for Viability (AID 2283782);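 further: continuous compound exposure with impedance area under curve over 80 h; hit means loss of impedance signal meaning reduced cell growth or viability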
Records with an inconclusive call do not appear. Activity calls are given as the source filed them. Rule for the calls: active = hit-call score of the fitted dose curve at least 0.9, where 1 is the maximum; inconclusive = response in the unintended direction; inactive = score below 0.9.
Classes used: active, inactive

inputSmiles: CC(C)(O)c1ccc(CNC(=O)c2cccnc2Oc2ccc3nonc3c2)cc1
classAssignment: inactive

inputSmiles: O=C(OCCCCCCOC(=O)c1ccccc1)c1ccccc1
classAssignment: inactive

inputSmiles: c1ccc2ccccc2c1
classAssignment: inactive

inputSmiles: O=C1O[C@H]([C@@H](O)CO)C(O)=C1O
classAssignment: inactive

inputSmiles: CN1C(=O)CC[C@H]1c1cccnc1
classAssignment: inactive

inputSmiles: CN(C[C@@H](CC[N+]12CCC(C3CCCCC3)(CC1)CC2)c1ccc(Cl)c(Cl)c1)C(=O)c1cc(C(F)(F)F)cc(C(F)(F)F)c1
classAssignment: active

---

- assayInfo: APR_HepG2_P-H2AX_72hr: Apredica 72-hour HepG2 Assay for H2AX Phosphorylation (AID 2282916);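 further: phospho-histone H2A.x immunostain intensity per cell marking DNA damage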
- conditionLabel: imaging, actives raise or lower the signal
Activity calls are given as the source filed them. Rule for the calls: active = hit-call score of the fitted dose curve at least 0.9, where 1 is the maximum; inactive = score below 0.9.
observedProperty: AC50

compound: O=C(OCCCCCCOC(=O)c1ccccc1)c1ccccc1
endpointResult: inactive
--
compound: CC[C@H](NC(=O)c1cc(F)ccc1NS(=O)(=O)c1cccc2cccnc12)c1ccccc1
endpointResult: inactive
--
compound: CC(=O)N1CCN(c2ccc(OC[C@H]3CO[C@](Cn4ccnc4)(c4ccc(Cl)cc4Cl)O3)cc2)CC1
endpointResult: 32.3 µM (active)
--
compound: CCO[Si](CCCNC(N)=O)(OCC)OCC
endpointResult: inactive
--
compound: CCCCCCCCCCCO
endpointResult: inactive
--
compound: c1ccc2n[nH]nc2c1
endpointResult: inactive
--
compound: O=c1[nH]sc2ccccc12
endpointResult: 46.1 µM (active)
--
compound: COCC(C)OCC(C)OCC(C)O (stereo not given)
endpointResult: inactive
--
compound: CC1=CC(=O)/C(=C(/C)O)C(=O)O1
endpointResult: inactive
--
compound: O=c1ccc2ccccc2o1
endpointResult: inactive
--
compound: CCCCCCCCN(C)CCCCCCCC
endpointResult: inactive
--
compound: CCCCCCCCCCCCO
endpointResult: inactive
--
compound: O=C(O)c1ccccc1-n1cc(C(=O)O)c(=O)c2cc(Nc3c(F)cc(F)cc3Cl)c(Cl)cc21
endpointResult: inactive
--
compound: NCc1cccc(C2CCN(C(=O)c3ccc(C#Cc4ccccc4F)o3)CC2)c1
endpointResult: 17.7 µM (active)
--
compound: CN1C(=O)CC[C@H]1c1cccnc1
endpointResult: inactive

---

- testedOn: human Peroxisome Proliferator-activated Receptor delta (PPARd), PPARD (gene 5467) (UniProt Q03181)
- Sequence (Q03181 whole entry, looked up): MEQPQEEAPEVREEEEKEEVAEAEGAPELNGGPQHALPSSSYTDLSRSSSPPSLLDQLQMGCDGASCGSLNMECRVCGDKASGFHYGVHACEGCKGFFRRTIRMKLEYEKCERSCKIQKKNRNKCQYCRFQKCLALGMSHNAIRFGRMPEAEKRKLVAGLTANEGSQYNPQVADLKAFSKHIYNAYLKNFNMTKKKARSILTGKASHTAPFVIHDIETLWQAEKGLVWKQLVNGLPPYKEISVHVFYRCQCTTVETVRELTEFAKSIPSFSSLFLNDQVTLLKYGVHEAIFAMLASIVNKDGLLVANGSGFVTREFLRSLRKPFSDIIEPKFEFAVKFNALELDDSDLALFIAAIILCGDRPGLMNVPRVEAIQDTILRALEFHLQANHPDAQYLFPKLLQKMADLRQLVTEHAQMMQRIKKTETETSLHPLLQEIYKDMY
- assayInfo: ATG_PPARd_TRANS: Attagene TRANS-FACTORIAL HepG2 Assay for human Peroxisome Proliferator-activated Receptor delta (PPARd) (AID 2283002)
- Description: ATG_TRANS is a cell-based, multiplexed-readout assay that uses HepG2, a human liver cell line, with measurements taken at 24 hours after chemical dosing in a 24-well plate.ATG_PPARd_TRANS is one of 30 assay component(s) measured or calculated from the ATG_TRANS assay. […] This assay endpoint, ATG_PPARd_TRANS, was analyzed in the positive analysis fitting direction relative to DMSO as the negative control and baseline of activity. […]
Inconclusive results are not listed. Active and inactive are the calls of the source. Rule for the calls: active = hit-call score of the fitted dose curve at least 0.9, where 1 is the maximum; inconclusive = response in the unintended direction; inactive = score below 0.9.
Classes used: active, inactive

inputSmiles: O=C=NCCCCCCN=C=O
classAssignment: inactive
--
inputSmiles: O=c1[nH]sc2ccccc12
classAssignment: inactive
--
inputSmiles: CN(C)C(=O)C1(N2CCCCC2)CCN(CC[C@@]2(c3ccc(Cl)c(Cl)c3)CN(C(=O)c3ccccc3)CCO2)CC1
classAssignment: inactive
--
inputSmiles: CCCCOC(=O)c1ccc(O)cc1
classAssignment: inactive
--
inputSmiles: CO[C@H]1/C=C/O[C@@]2(C)Oc3c(C)c(O)c4c(O)c(c(/C=N/N5CCN(C)CC5)c(O)c4c3C2=O)NC(=O)/C(C)=C\C=C\[C@H](C)[C@H](O)[C@@H](C)[C@@H](O)[C@@H](C)[C@H](OC(C)=O)[C@@H]1C
classAssignment: inactive
--
inputSmiles: Cc1c2ccccc2c(C)c2c1ccc1ccccc12
classAssignment: active
--
inputSmiles: Cc1oc2c(NC(=O)c3c(Cl)cccc3Cl)cccc2c1C(C)(C)O
classAssignment: inactive
--
inputSmiles: CCCCCc1ccc(N)cc1
classAssignment: inactive
--
inputSmiles: O=c1c(-c2ccc(O)cc2)coc2cc(O)cc(O)c12
classAssignment: inactive
--
inputSmiles: CCCCOC(=O)CC(CC(=O)OCCCC)(OC(C)=O)C(=O)OCCCC
classAssignment: inactive
